I'd be grateful if you could share measured solubility for these entries.
# EXPERIMENT_NOTES: Solubility of processed ginseng extract (ginsenosides Rg3 and Rh2 by HPLC) in solvents and dissolution media
# Assay type: physicochemical
# EXPERIMENTAL_CONDITIONS: Isopropanol; 500 mg processed ginseng extract in 2 g solvent, 50 rpm, 37°C, 18 hours
Entry rule: numbers only, all in mg/g.

Quickly give me recorded solubility for CC(C)=CCC[C@](C)(O)[C@H]1CC[C@]2(C)[C@@H]1[C@H](O)C[C@@H]1[C@@]3(C)CC[C@H](O[C@@H]4O[C@H](CO)[C@@H](O)[C@H](O)[C@H]4O)C(C)(C)[C@@H]3CC[C@]12C [Ginsenoside Rh2 R-form, Ginsenoside Rh2]
2.47

Respond only with solubility recorded for CC(C)=CCC[C@](C)(O)[C@H]1CC[C@]2(C)[C@@H]1[C@H](O)C[C@@H]1[C@@]3(C)CC[C@H](O[C@@H]4O[C@H](CO)[C@@H](O)[C@H](O)[C@H]4O)C(C)(C)[C@@H]3CC[C@]12C [Ginsenoside Rh2 S-form, Ginsenoside Rh2]
3.99

Fill in reported solubility for this entry: CC(C)=CCC[C@](C)(O)[C@H]1CC[C@]2(C)[C@@H]1[C@H](O)C[C@@H]1[C@@]3(C)CC[C@H](O[C@@H]4O[C@H](CO)[C@@H](O)[C@H](O)[C@H]4O[C@@H]4O[C@H](CO)[C@@H](O)[C@H](O)[C@H]4O)C(C)(C)[C@@H]3CC[C@]12C [Ginsenoside Rg3 S-form, Ginsenoside Rg3]
7.43

Output measured solubility for this item: CC(C)=CCC[C@](C)(O)[C@H]1CC[C@]2(C)[C@@H]1[C@H](O)C[C@@H]1[C@@]3(C)CC[C@H](O[C@@H]4O[C@H](CO)[C@@H](O)[C@H](O)[C@H]4O[C@@H]4O[C@H](CO)[C@@H](O)[C@H](O)[C@H]4O)C(C)(C)[C@@H]3CC[C@]12C [Ginsenoside Rg3 R-form, Ginsenoside Rg3]
4.72

* * *

# EXPERIMENT_NOTES: Solubility of processed ginseng extract (ginsenosides Rg3 and Rh2 by HPLC) in solvents and dissolution media
# Format: physicochemical
# EXPERIMENTAL_CONDITIONS: pH 1.2 buffer; 500 mg processed ginseng extract in 2 g solvent, 50 rpm, 37°C, 18 hours
Kindly state solubility for each of the entries shown.
# value in mg/g; strip the unit string

Annotate the molecule CC(C)=CCC[C@](C)(O)[C@H]1CC[C@]2(C)[C@@H]1[C@H](O)C[C@@H]1[C@@]3(C)CC[C@H](O[C@@H]4O[C@H](CO)[C@@H](O)[C@H](O)[C@H]4O)C(C)(C)[C@@H]3CC[C@]12C [Ginsenoside Rh2 S-form, Ginsenoside Rh2] with its measured solubility.
0.00

Quickly give me recorded solubility for CC(C)=CCC[C@](C)(O)[C@H]1CC[C@]2(C)[C@@H]1[C@H](O)C[C@@H]1[C@@]3(C)CC[C@H](O[C@@H]4O[C@H](CO)[C@@H](O)[C@H](O)[C@H]4O[C@@H]4O[C@H](CO)[C@@H](O)[C@H](O)[C@H]4O)C(C)(C)[C@@H]3CC[C@]12C [Ginsenoside Rg3 S-form, Ginsenoside Rg3]
0.01

Fill in solubility for record CC(C)=CCC[C@](C)(O)[C@H]1CC[C@]2(C)[C@@H]1[C@H](O)C[C@@H]1[C@@]3(C)CC[C@H](O[C@@H]4O[C@H](CO)[C@@H](O)[C@H](O)[C@H]4O)C(C)(C)[C@@H]3CC[C@]12C [Ginsenoside Rh2 R-form, Ginsenoside Rh2]
0.00

Return the recorded solubility value; entry: CC(C)=CCC[C@](C)(O)[C@H]1CC[C@]2(C)[C@@H]1[C@H](O)C[C@@H]1[C@@]3(C)CC[C@H](O[C@@H]4O[C@H](CO)[C@@H](O)[C@H](O)[C@H]4O[C@@H]4O[C@H](CO)[C@@H](O)[C@H](O)[C@H]4O)C(C)(C)[C@@H]3CC[C@]12C [Ginsenoside Rg3 R-form, Ginsenoside Rg3]
0.01

* * *

Please go through the items and note down their solubility.
# EXPERIMENT_NOTES: Solubility of processed ginseng extract (ginsenosides Rg3 and Rh2 by HPLC) in solvents and dissolution media
# Type: physicochemical
# EXPERIMENTAL_CONDITIONS: pH 4.0 buffer; 500 mg processed ginseng extract in 2 g solvent, 50 rpm, 37°C, 18 hours
Give the value in mg/g but do not write mg/g after it.

Determine its reported solubility: CC(C)=CCC[C@](C)(O)[C@H]1CC[C@]2(C)[C@@H]1[C@H](O)C[C@@H]1[C@@]3(C)CC[C@H](O[C@@H]4O[C@H](CO)[C@@H](O)[C@H](O)[C@H]4O[C@@H]4O[C@H](CO)[C@@H](O)[C@H](O)[C@H]4O)C(C)(C)[C@@H]3CC[C@]12C [Ginsenoside Rg3 S-form, Ginsenoside Rg3]
0.28

Given CC(C)=CCC[C@](C)(O)[C@H]1CC[C@]2(C)[C@@H]1[C@H](O)C[C@@H]1[C@@]3(C)CC[C@H](O[C@@H]4O[C@H](CO)[C@@H](O)[C@H](O)[C@H]4O[C@@H]4O[C@H](CO)[C@@H](O)[C@H](O)[C@H]4O)C(C)(C)[C@@H]3CC[C@]12C [Ginsenoside Rg3 R-form, Ginsenoside Rg3] , respond with its solubility.
0.05

Entry CC(C)=CCC[C@](C)(O)[C@H]1CC[C@]2(C)[C@@H]1[C@H](O)C[C@@H]1[C@@]3(C)CC[C@H](O[C@@H]4O[C@H](CO)[C@@H](O)[C@H](O)[C@H]4O)C(C)(C)[C@@H]3CC[C@]12C [Ginsenoside Rh2 S-form, Ginsenoside Rh2] needs its solubility filled in; supply it.
0.13

Find the measured solubility of CC(C)=CCC[C@](C)(O)[C@H]1CC[C@]2(C)[C@@H]1[C@H](O)C[C@@H]1[C@@]3(C)CC[C@H](O[C@@H]4O[C@H](CO)[C@@H](O)[C@H](O)[C@H]4O)C(C)(C)[C@@H]3CC[C@]12C [Ginsenoside Rh2 R-form, Ginsenoside Rh2] and report it.
0.00

* * *

# EXPERIMENT_NOTES: Solubility of processed ginseng extract (ginsenosides Rg3 and Rh2 by HPLC) in solvents and dissolution media
# Assay type: physicochemical
# EXPERIMENTAL_CONDITIONS: pH 6.8 buffer; 500 mg processed ginseng extract in 2 g solvent, 50 rpm, 37°C, 18 hours
Could you please report measured solubility for the items listed next?
Please give a number only; it is taken to be in mg/g.

Answer with the recorded solubility for the compound listed here: CC(C)=CCC[C@](C)(O)[C@H]1CC[C@]2(C)[C@@H]1[C@H](O)C[C@@H]1[C@@]3(C)CC[C@H](O[C@@H]4O[C@H](CO)[C@@H](O)[C@H](O)[C@H]4O[C@@H]4O[C@H](CO)[C@@H](O)[C@H](O)[C@H]4O)C(C)(C)[C@@H]3CC[C@]12C [Ginsenoside Rg3 R-form, Ginsenoside Rg3]
0.31

Using known records, supply solubility for CC(C)=CCC[C@](C)(O)[C@H]1CC[C@]2(C)[C@@H]1[C@H](O)C[C@@H]1[C@@]3(C)CC[C@H](O[C@@H]4O[C@H](CO)[C@@H](O)[C@H](O)[C@H]4O)C(C)(C)[C@@H]3CC[C@]12C [Ginsenoside Rh2 R-form, Ginsenoside Rh2]
0.09

Please report solubility for the following compound: CC(C)=CCC[C@](C)(O)[C@H]1CC[C@]2(C)[C@@H]1[C@H](O)C[C@@H]1[C@@]3(C)CC[C@H](O[C@@H]4O[C@H](CO)[C@@H](O)[C@H](O)[C@H]4O[C@@H]4O[C@H](CO)[C@@H](O)[C@H](O)[C@H]4O)C(C)(C)[C@@H]3CC[C@]12C [Ginsenoside Rg3 S-form, Ginsenoside Rg3]
1.23

Give the value of solubility reported for the following: CC(C)=CCC[C@](C)(O)[C@H]1CC[C@]2(C)[C@@H]1[C@H](O)C[C@@H]1[C@@]3(C)CC[C@H](O[C@@H]4O[C@H](CO)[C@@H](O)[C@H](O)[C@H]4O)C(C)(C)[C@@H]3CC[C@]12C [Ginsenoside Rh2 S-form, Ginsenoside Rh2]
0.60

* * *

# EXPERIMENT_NOTES: Solubility of processed ginseng extract (ginsenosides Rg3 and Rh2 by HPLC) in solvents and dissolution media
# Assay type: physicochemical
# EXPERIMENTAL_CONDITIONS: Ethanol; 500 mg processed ginseng extract in 2 g solvent, 50 rpm, 37°C, 18 hours
METRIC_NAME: solubility (mg/g)
Give the value in mg/g but do not write mg/g after it.

Indicate its recorded solubility; the compound in question is CC(C)=CCC[C@](C)(O)[C@H]1CC[C@]2(C)[C@@H]1[C@H](O)C[C@@H]1[C@@]3(C)CC[C@H](O[C@@H]4O[C@H](CO)[C@@H](O)[C@H](O)[C@H]4O)C(C)(C)[C@@H]3CC[C@]12C [Ginsenoside Rh2 S-form, Ginsenoside Rh2]
3.96

Answer with the recorded solubility for the compound listed here: CC(C)=CCC[C@](C)(O)[C@H]1CC[C@]2(C)[C@@H]1[C@H](O)C[C@@H]1[C@@]3(C)CC[C@H](O[C@@H]4O[C@H](CO)[C@@H](O)[C@H](O)[C@H]4O[C@@H]4O[C@H](CO)[C@@H](O)[C@H](O)[C@H]4O)C(C)(C)[C@@H]3CC[C@]12C [Ginsenoside Rg3 R-form, Ginsenoside Rg3]
5.45

Let me know recorded solubility for CC(C)=CCC[C@](C)(O)[C@H]1CC[C@]2(C)[C@@H]1[C@H](O)C[C@@H]1[C@@]3(C)CC[C@H](O[C@@H]4O[C@H](CO)[C@@H](O)[C@H](O)[C@H]4O[C@@H]4O[C@H](CO)[C@@H](O)[C@H](O)[C@H]4O)C(C)(C)[C@@H]3CC[C@]12C [Ginsenoside Rg3 S-form, Ginsenoside Rg3] , thanks.
7.52

Using known records, supply solubility for CC(C)=CCC[C@](C)(O)[C@H]1CC[C@]2(C)[C@@H]1[C@H](O)C[C@@H]1[C@@]3(C)CC[C@H](O[C@@H]4O[C@H](CO)[C@@H](O)[C@H](O)[C@H]4O)C(C)(C)[C@@H]3CC[C@]12C [Ginsenoside Rh2 R-form, Ginsenoside Rh2]
2.55

The values you see were collected from patent EP3981391B1.
